Taken from patent US20180305450A1.

- Subject of test: T1, recombinant biotinylated rat PAR2 extracellular residues 1-75, N-terminal AviTag, C-terminal Flag and poly … (rat, UniProt Q63645 26-75, not fully specified; biotin on the AviTag (enzymatic biotinylation))
- T1 construct: range 1-75; not shown: N-terminal AviTag (Avidity LLC); C-terminal Flag and poly Histidine tags
- T1 chain (looked up): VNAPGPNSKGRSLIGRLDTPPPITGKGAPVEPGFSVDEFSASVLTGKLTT
- Test description: Biacore SPR 25 C, pH 7.4
Below is a list of entries, each paired with its recorded pKd value.
Here pKd is given on a logarithmic scale as minus log10 of the concentration in mol/L.

// returns reported pKd for input PaB670120 Fab (Fab, V domains shown, Fab; also called ZZ1RUC-C11) VH: EVQLLESGGGLVQPGGSLRLSCAASGFTFSSYAMNWVRQAPGKGLEWVSTISYHGHHISYADSHHHRFTISRDNSKNTLYLQMNSLRAEDTAVYYCARINHDPMDVWGQGTLVTVSS VL: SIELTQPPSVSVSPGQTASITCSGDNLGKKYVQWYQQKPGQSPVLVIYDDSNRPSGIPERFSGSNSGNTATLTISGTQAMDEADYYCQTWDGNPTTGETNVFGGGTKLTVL
8.58

Requested read-out: pKd. Entry: PaB670084 Fab (Fab, V domains shown, Fab; also called ZZ1PXA-A05) VH: EVQLLESGGGLVQPGGSLRLSCAASGFTFSSYAMNWVRQAPGKGLEWVSTISHSGHLIHHADSHKGRFTISRDNSKNTLYLQMNSLRAEDTAVYYCARINNDPMDVWGQGTLVTVSS VL: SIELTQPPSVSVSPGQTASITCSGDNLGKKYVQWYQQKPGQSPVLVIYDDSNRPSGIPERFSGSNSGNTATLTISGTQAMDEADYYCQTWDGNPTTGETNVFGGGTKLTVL
8.91

Looking for the measured pKd of PaB670129 Fab (Fab, V domains shown, Fab; also called ZZ1RUE-F02) VH: EVQLLESGGGLVQPGGSLRLSCAASGFTFSSYAMNWVRQAPGKGLEWVSTISYHGSHISYHDSVHHRFTISRDNSKNTLYLQMNSLRAEDTAVYYCARIHHDPMDVWGQGTLVTVSS VL: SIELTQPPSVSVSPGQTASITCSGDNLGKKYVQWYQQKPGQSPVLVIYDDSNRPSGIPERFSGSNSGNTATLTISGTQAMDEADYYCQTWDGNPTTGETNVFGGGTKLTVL , can you help?
8.53
